target-or-test-system: human orexin-2 receptor (Homo sapiens (Human), UniProt O43614)
Sequence (O43614 whole entry): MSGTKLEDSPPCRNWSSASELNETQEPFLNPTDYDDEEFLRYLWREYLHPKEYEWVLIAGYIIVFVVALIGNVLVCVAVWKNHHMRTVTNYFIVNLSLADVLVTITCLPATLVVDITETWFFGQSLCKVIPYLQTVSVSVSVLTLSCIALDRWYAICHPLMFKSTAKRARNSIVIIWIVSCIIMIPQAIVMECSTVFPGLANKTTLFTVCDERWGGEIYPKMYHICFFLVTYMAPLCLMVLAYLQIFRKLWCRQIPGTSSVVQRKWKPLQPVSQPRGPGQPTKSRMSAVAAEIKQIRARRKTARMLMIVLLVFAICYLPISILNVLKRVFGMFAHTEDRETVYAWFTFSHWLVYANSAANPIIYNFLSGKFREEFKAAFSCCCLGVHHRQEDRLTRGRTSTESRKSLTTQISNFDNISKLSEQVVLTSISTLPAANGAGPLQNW
protocol-notes: In vitro intracellular calcium measurements (FLIPR), antagonistic activity on orexin-2 receptor
Assay type: cell-based
assay-setup: CHO cells expressing human orexin-2 receptor; FLIPR; 3 nM orexin-A agonist; 120 min antagonist incubation; geometric mean if determined several times; read-out: IC50 OX2
Would you kindly list IC50 for each of these compounds?
One number for each entry, in nM.

Provide IC50 for all items below, preserving their order.
1. O=C(c1cc(Cl)ccc1-n1nccn1)N1CCOC[C@H]1Cc1cccc(-c2ncon2)c1
2. O=C(c1ccccc1-n1nccn1)N1CCOC[C@H]1Cc1cccc(-c2ncccn2)c1
3. Cc1ccc(C(=O)N2C[C@@H](C)OC[C@H]2Cc2cccc(-n3nccn3)c2)c(-n2nccn2)c1C
4. Cc1ccc(-n2nccn2)c(C(=O)N2CCCC[C@H]2Cc2cccc(-n3nccn3)c2)c1
5. Cc1ccnc(-c2cccc(C[C@@H]3COCCN3C(=O)c3ccccc3-n3nccn3)c2)n1

[246, 1890, 1220, 2, 762]

Provide IC50 for all items below, preserving their order.
1. Cc1cccc(C(=O)N2CCOC[C@H]2Cc2cc(-n3nccn3)ccc2F)c1-n1nccn1
2. Cc1ccc(C(=O)N2C[C@@H](C)OC[C@H]2Cc2cc(-n3nccn3)ccc2F)c(-n2nccn2)c1

1500
107
